Origin of the recorded values: PubChem BioAssay

Assay: growth inhibitors of H69AR lung tumor, primary screen, human, duplicate replicates (AID 580);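 also: 100% = mean luminescence of untreated wells and 0% = no signal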
Conditions: H69AR lung tumor cells viability, ATP luminescence, 72 h; at 10 µM; stronger effect = lower value
Calls of active or inactive are those of the source.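 The calls were made as follows: active = viability at or under a set limit in both replicates, limit being median viability minus 3 SD (cut at about 48% in these data, passing the limit was not always enough); inconclusive = at or under the limit in just one replicate; inactive = at or above the limit in both replicates.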
Quick list: viability per entry.
Test Readout: viability

[
  {
    "Molecule": "Cc1ccc(-c2nnn(CC(=O)N(Cc3ccco3)C(C(=O)NC(C)(C)C)c3cccs3)n2)o1 (stereo unspecified)",
    "Result": "95.9% (inactive)"
  },
  {
    "Molecule": "CCN(CC)CCN1C(=O)C(O)=C(C(=O)c2cccs2)C1c1ccccn1 (stereo unspecified)",
    "Result": "98% (inactive)"
  },
  {
    "Molecule": "NC(=O)CSc1nnc(-c2ccc(O)cc2)n1Cc1ccco1",
    "Result": "98.6% (inactive)"
  },
  {
    "Molecule": "CCOC(=O)c1[nH]c(C)c(C(=O)N2CCN(c3ccc(F)cc3)CC2)c1C",
    "Result": "92.3% (inactive)"
  },
  {
    "Molecule": "O=C(CN1CCN(c2cccc(Cl)c2)CC1)N1CCCC1",
    "Result": "78.8% (inactive)"
  },
  {
    "Molecule": "O=C(NCCC1=CCCCC1)C1CCN(C(=O)Nc2ccccc2)CC1",
    "Result": "101% (inactive)"
  },
  {
    "Molecule": "Cc1cc(Cl)ccc1OCCCC(=O)N1CCOCC1",
    "Result": "87.7% (inactive)"
  },
  {
    "Molecule": "CCOc1ccc2nc(SCc3ccc(C(=O)OC)o3)[nH]c2c1",
    "Result": "109% (inactive)"
  },
  {
    "Molecule": "Cc1nc2cc(Cl)ccc2n1CCO",
    "Result": "92% (inactive)"
  },
  {
    "Molecule": "CCOC(=O)c1cc(CC)sc1NC(=O)CCC(=O)O",
    "Result": "93.8% (inactive)"
  },
  {
    "Molecule": "CCOC(=O)C1CCN(C(=O)C2(NC(=O)Nc3ccccc3Cl)CCCCC2)CC1",
    "Result": "87.9% (inactive)"
  }
]
